Tested on: NCI-H460 lung
Assay: NCI-60 one-dose screen, 48 h
Details: 10 µM unless noted
This is part of a sample that, as a whole, favours compounds with a hit. Of some 83,000 tested, about 20% had one in any assay. The source made the active and inactive calls. How the source made its calls: active means growth percent below 10; inactive means the rest.
Classes used: TRUE (active), FALSE (inactive)

[
  {
    "molecule": "Nc1nc2c(ncn2[C@@H]2O[C@H](CS)[C@@H](O)[C@H]2O)c(=O)[nH]1",
    "category": "FALSE"
  },
  {
    "molecule": "Clc1ccc(-c2nnc(COc3ccc(C4=NNC(c5ccco5)C4)cc3)o2)cc1 (stereo unspecified)",
    "category": "FALSE"
  },
  {
    "molecule": "Nc1ccn(C2O[C@H](CO)[C@@H](O)[C@H]2O)c(=O)n1 (stereo partly specified)",
    "category": "FALSE"
  },
  {
    "molecule": "C1CCN(c2nc(N3CCCCC3)nc(N3CCOCC3)n2)CC1",
    "category": "FALSE"
  },
  {
    "molecule": "CC1=CCC(OC(=O)C(C)(C)CCC(O)(C(=O)OC2(C(C)C)CCC3(C)OC3C2)C(C)C)(C(C)C)CC1 (stereo unspecified)",
    "category": "TRUE"
  },
  {
    "molecule": "COc1ccc(-c2nc(N3CCN(C(=O)C4CCCCC4)CC3)c3c4c(sc3n2)CCCC4)cc1",
    "category": "TRUE"
  },
  {
    "molecule": "O=C1/C(=C\\c2ccc[nH]2)c2ccccc2N1c1ccccc1",
    "category": "FALSE"
  },
  {
    "molecule": "Brc1ccc(Oc2ccc(Nc3ncnc4onc(-c5ccccc5)c34)cc2)cc1",
    "category": "FALSE"
  },
  {
    "molecule": "COCCN(C(=O)Cc1cccs1)C(C(=O)NCc1ccc(OC)cc1)c1ccc(C(C)C)cc1 (stereo unspecified)",
    "category": "FALSE"
  },
  {
    "molecule": "Cc1cccc2c(=O)c3c(sc12)c(NCCN)nc1ccccc13",
    "category": "TRUE"
  },
  {
    "molecule": "CCOc1cc2c(cc1OCC)C(c1cc(C)c(O)c(C)c1)NCC2 (stereo unspecified)",
    "category": "FALSE"
  },
  {
    "molecule": "CSc1nc2c(c(=O)[nH]1)N=C1c3ccccc3C(=O)C1C(c1ccc(F)cc1)N2 (stereo unspecified)",
    "category": "FALSE"
  },
  {
    "molecule": "O=S1(=O)N(Cc2ccccc2)[C@@H](Cc2ccccc2)C2O[C@H]2[C@H](Cc2ccccc2)N1Cc1ccccc1 (stereo partly specified)",
    "category": "TRUE"
  },
  {
    "molecule": "O=C(CCc1nnc2sc(-c3ccc(Cl)cc3Cl)nn12)c1nc2ncccc2[nH]1",
    "category": "TRUE"
  },
  {
    "molecule": "CC(=Nc1ccccc1)C1=C(O)C(Cc2ccc(F)cc2)NC1=O (stereo unspecified)",
    "category": "FALSE"
  },
  {
    "molecule": "CCCCC(O)(c1ccc(Cl)cc1)C(CN1CCOCC1)c1ccc(Cl)cc1 (stereo unspecified)",
    "category": "FALSE"
  },
  {
    "molecule": "CN(CCc1ccccc1)C(=S)N(C(=O)c1ccc([N+](=O)[O-])cc1)c1ccc(Cl)cc1",
    "category": "FALSE"
  },
  {
    "molecule": "Nc1ccc(C2c3ccccc3Oc3ccccc32)cc1",
    "category": "FALSE"
  },
  {
    "molecule": "O=C(/C=C/c1ccc(C(F)(F)F)cc1)c1ccc(Nc2nc(NCCO)nc(Nc3ccc(Cl)cc3)n2)cc1",
    "category": "FALSE"
  },
  {
    "molecule": "Nc1ccc(-c2ccc(-c3ccccc3N)c3[nH]c4ccccc4c23)cc1",
    "category": "FALSE"
  },
  {
    "molecule": "CCOC(=O)c1sc(-c2ccc(OS(=O)(=O)c3cccs3)c(C=O)c2)nc1C",
    "category": "TRUE"
  },
  {
    "molecule": "O=C(Nc1ccc(I)cc1F)c1cc(Br)ccc1O",
    "category": "TRUE"
  },
  {
    "molecule": "CC1(C)CC2(C)OC2C2(C1)N=NC(=Nc1ccccc1)O2 (stereo unspecified)",
    "category": "FALSE"
  },
  {
    "molecule": "CN(C)c1ccc(N=Cc2ccc(N3CCOCC3)cc2)cc1",
    "category": "FALSE"
  },
  {
    "molecule": "Cc1nc2ccccc2c(/C=C/c2ccccc2)c1C(=O)/C=C/c1ccc(Cl)cc1",
    "category": "TRUE"
  },
  {
    "molecule": "FC(F)(F)c1cccc(CNC2CCN(CCc3ccccc3)CC2)c1",
    "category": "FALSE"
  },
  {
    "molecule": "CC1=NCC2NC(=O)NC(C)=C12 (stereo unspecified)",
    "category": "FALSE"
  },
  {
    "molecule": "O=C(Nc1ccc(N2CCNCC2)cc1)c1[nH]ncc1Nc1ncnc2sc3c(c12)CCC3",
    "category": "TRUE"
  },
  {
    "molecule": "COC(=O)c1c2c(c(C)[n+]([O-])c1C)C(=O)C(NCc1ccc(Br)cc1)=CC2=O",
    "category": "TRUE"
  },
  {
    "molecule": "O=C(/C=C/c1ccc(C(F)(F)F)cc1)c1ccc(Nc2nc(NCCO)nc(N3CCOCC3)n2)cc1",
    "category": "FALSE"
  },
  {
    "molecule": "CC(C)CCOc1ccc(-c2n[nH]c(C(F)(F)F)c2-c2cncc(C#N)c2)c(O)c1",
    "category": "TRUE"
  },
  {
    "molecule": "N#CC(C#N)=Cc1c(-c2ccccc2)[nH]c2ccccc12",
    "category": "FALSE"
  },
  {
    "molecule": "Cc1ccc2c(n1)C(=O)C(Oc1ccc(Br)cc1)=CC2=O",
    "category": "FALSE"
  },
  {
    "molecule": "COc1ccc(C(O)(CCC(C)C)C(CN2CCOCC2)c2ccc(Cl)cc2)cc1 (stereo unspecified)",
    "category": "FALSE"
  },
  {
    "molecule": "O=C1c2ccc3c4c(ccc(c24)C(=O)N1CCCCO)C(=O)N(CCCCO)C3=O",
    "category": "FALSE"
  },
  {
    "molecule": "COc1ccc(Nc2nc(N/N=C/c3ccc(O)cc3)nc(Nc3ccc([N+](=O)[O-])cc3)n2)cc1",
    "category": "FALSE"
  },
  {
    "molecule": "CN1C(=O)N(C)C2C1NN=c1s/c(=C\\c3ccc(Cl)cc3Cl)c(=O)n12 (stereo unspecified)",
    "category": "TRUE"
  },
  {
    "molecule": "O=C(Nc1ncc(Cc2cccc(C(F)(F)F)c2)s1)C1COc2ccccc2O1 (stereo unspecified)",
    "category": "FALSE"
  },
  {
    "molecule": "CCCc1c(C)c2sc(=O)[nH]c2[nH]c1=O",
    "category": "FALSE"
  },
  {
    "molecule": "COc1ccc2[nH]c(O)c(N=NC(=O)c3oc4ccccc4c3C)c2c1",
    "category": "TRUE"
  },
  {
    "molecule": "Cn1cc([C@@H]2Nc3ccc4[nH]ncc4c3[C@H]3[C@H]4CCC(C4)[C@H]32)c(C(F)(F)F)n1",
    "category": "FALSE"
  }
]

Cited source: PubChem BioAssay (NCI)
